target: recombinant human β-Amyloid Peptide (1-42) (Homo sapiens, UniProt P05067); construct: recombinant human β-Amyloid Peptide (1-42) from BioLegend; purchased BioLegend 843801; assay: Binding assay: mass spectrometry (Q-TOF) of compounds binding to Aβ1-42; details: 22 pmol/μL β-Amyloid Peptide (1-42), 1100 pmol/μL test compound; direct infusion Q-TOF MS at room temperature
Sequence (P05067 672-713 limits assumed): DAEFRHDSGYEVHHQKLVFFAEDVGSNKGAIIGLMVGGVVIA
assay-metric: Number of Molecules Bound to Aβ1-42 (# of Molecules Bound to Aβ)
Answers are plain numbers.

compound	tested-target	recorded-result
Nc1ccc(N)c(S(=O)(=O)O)c1 [Compound 126]	recombinant human β-Amyloid Peptide (1-42) (Homo sapiens, UniProt P05067)	1
Nc1ccc(S(=O)(=O)O)cn1 [Compound 170]	recombinant human β-Amyloid Peptide (1-42) (Homo sapiens, UniProt P05067)	6
Cc1cc(C)[n+]2cc(S(=O)(=O)[O-])sc2n1 [Compound 148]	recombinant human β-Amyloid Peptide (1-42) (Homo sapiens, UniProt P05067)	5
Cc1cc(=O)n(-c2cccc(S(=O)(=O)O)c2)[nH]1 [Compound 154]	recombinant human β-Amyloid Peptide (1-42) (Homo sapiens, UniProt P05067)	1
Nc1ccc(Nc2ccc(N)cc2S(=O)(=O)O)cc1 [Compound 160]	recombinant human β-Amyloid Peptide (1-42) (Homo sapiens, UniProt P05067)	1

Take each entry in turn and give its Number of Molecules Bound to Aβ1-42 (# of Molecules Bound to Aβ).
1. Nc1cc(S(=O)(=O)O)cc(C(=O)O)c1O [Compound 143]
2. O=S(=O)(O)c1ccc2c(c1)NCC2 [Compound 131]
3. Nc1ncc(S(=O)(=O)O)s1 [Compound 124]
4. CCOC(=O)c1cnn(-c2ccc(S(=O)(=O)O)cc2)c1N [Compound 163]
5. CCCn1c(S(=O)(=O)O)nc2ccccc21 [Compound 145]
6. Nc1cccc2ccc(S(=O)(=O)O)cc12 [Compound 136]
7. Nc1cc(S(=O)(=O)O)ccc1O [Compound 128]
8. Nc1cccc2c(S(=O)(=O)O)cccc12 [Compound 138]

(A)
1. 0
2. 0
3. 3
4. 0
5. 0
6. 0
7. 0
8. 0

Give Number of Molecules Bound to Aβ1-42 (# of Molecules Bound to Aβ) for all compounds that follow.
1. Nc1ncnc2[nH]c(S(=O)(=O)O)nc12 [Compound 134]
2. Nc1ccc2c(S(=O)(=O)O)cccc2c1N [Compound 144]

(A)
[2, 0]

Origin of measurements: patent US12036208B2
